Assay: Toxicity liver stage against HepG2, at 10uM
Assay type: cell-based
Set-up: test concentration 10 uM, cell line HepG2-A16-CD81EGFP
Details: human, HepG2-A16-CD81EGFP cells; read-out: INHIBITION
Would you mind telling me the reported cytotoxicity at 10 µM of each entry?
Numbers only, in %.

Worked set:
{"Molecule": "Cc1noc(-c2ccc(N(C)Cc3ccncn3)nc2)n1", "Readout units": "%", "Experimental value": 1.11}
{"Molecule": "O=C(Nc1ccc(F)c(Cl)c1)N1CCCN([C@H]2COC[C@@H]2O)CC1", "Readout units": "%", "Experimental value": -40.7}
{"Molecule": "COC(=O)CC(c1cccc(OC(F)F)c1)c1oc(C)cc(=O)c1O (configuration not stated)", "Readout units": "%", "Experimental value": -9.11}

Kindly give each listed record's cytotoxicity at 10 µM.
1. COC(=O)c1cccc(C2CNCCN2C(C)=O)c1 (configuration not stated)
2. Cc1ccc(CCNc2ncc(C)c(-c3ccnn3C)n2)s1
3. CNc1ncccc1CN1CCN2CCN(C)CC2C1 (configuration not stated)
4. CC(C)CN1C(=O)C2(CCN(Cc3ccsc3)C2)c2ccccc21 (configuration not stated)

1: 3.31; 2: 9.68; 3: -2.46; 4: 15.7

Kindly give each listed record's cytotoxicity at 10 µM.
1. O=C(O)C1(Cc2ccc(F)cc2)CCCN(Cc2ccncc2)C1 (configuration not stated)
2. Cc1n[nH]c(C2CN(C(=O)c3csnn3)CCO2)n1 (configuration not stated)
3. CN(Cc1cnn(C)c1)CC(O)c1ccc2c(c1)OCO2 (configuration not stated)
4. COc1ccc(CNC2CCc3ncnn3C2)cc1OCCCC#N (configuration not stated)
5. O=C(C1CCOC1)N1CCC2(CC1)CN(Cc1nccs1)CCO2 (configuration not stated)

[-0.566, 2.74, -9.98, -5.45, -75]

---

Experiment: Toxicity liver stage against HepG2, at 10uM
Assay type: cell-based
Set-up: test concentration 10 uM, cell line HepG2-A16-CD81EGFP
Conditions: human, HepG2-A16-CD81EGFP cells; read-out: INHIBITION
Property name: cytotoxicity at 10 µM (%)
Numbers only, in %.

Worked set:
{"Compound": "CCO[C@H]1CO[C@@]2(CCCN(S(=O)(=O)c3cccnc3)C2)C1", "Readout units": "%", "cytotoxicity at 10 µM": -86.2}
{"Compound": "CC(C)C1CN(C(=O)c2cn3ccccc3n2)CCCN1CC1CC1 (stereo unspecified)", "Readout units": "%", "cytotoxicity at 10 µM": -13.6}

Kindly give each listed record's cytotoxicity at 10 µM.
1. CC(CNS(C)(=O)=O)c1ccc(F)c(F)c1 (stereo unspecified)
2. CN1C[C@@H](n2cnc(-c3ccccc3)c2-c2ccccn2)C[C@H]1C(=O)O
3. CCn1c(C2CCCN(Cc3cc(F)ccc3OC)C2)nn(C)c1=O (stereo unspecified)
4. Fc1cccc(O[C@@H]2C[C@H]3CN(Cc4ccncc4)CCN3C2)c1
5. Cc1ccccc1C(O)CNC(=O)Cc1ccc(F)cc1 (stereo unspecified)
6. CC(C)N1CCC2(CC1)C[C@@H](O)[C@H](c1ccccc1)NC2=O
7. CC(=O)N1CCCN(CCCSCc2ccccc2)CC1

-4.71
0.322
-4.12
-143
5.8
-16.7
-4.53

Kindly give each listed record's cytotoxicity at 10 µM.
1. CN1CCC(c2nnc3ccc(C(=O)N4CCCCC4)cn23)C1 (stereo unspecified)
2. O=c1c(NCCc2ccc(O)cc2)c(NCc2ccco2)c1=O

1. -167
2. -10.7

---

Assay: Toxicity liver stage against HepG2, at 10uM
Assay type: cell-based
Design: test concentration 10 uM, cell line HepG2-A16-CD81EGFP
Conditions: human, HepG2-A16-CD81EGFP cells; read-out: INHIBITION
Property name: cytotoxicity at 10 µM (%)
Numbers only, in %.

Worked set:
{"Compound": "CCC(=O)N1CCC(Cc2ccccc2-c2cccc(C)c2)(C(N)=O)C1 (centres undefined)", "Property name": "cytotoxicity at 10 µM", "Experimental value": -27.5}
{"Compound": "Cn1c(NCCN2CCCCCC2)c(C#N)c(=O)n(C)c1=O", "Property name": "cytotoxicity at 10 µM", "Experimental value": 0.0687}
{"Compound": "Cc1nc(O)ccc1C(=O)N1CCCC1c1nc(-c2ccccc2)n[nH]1 (centres undefined)", "Property name": "cytotoxicity at 10 µM", "Experimental value": 0.636}
{"Compound": "Cc1c(CN2CCCC(C(=O)CCc3ccccc3)C2)cc(C#N)n1C (centres undefined)", "Property name": "cytotoxicity at 10 µM", "Experimental value": -5.76}

Kindly give each listed record's cytotoxicity at 10 µM.
1. Cc1csc([C@H]2C[C@@H]3CCN(Cc4cnn(C)c4)C[C@H]3O2)n1
2. Cc1ccc(CN(C)Cc2nc3c(cnn3C)c(=O)[nH]2)o1
3. COc1ncnc2c1CCN(Cc1nccs1)CC2
4. CC(NC(=O)NCCNc1ncccn1)c1cccs1 (centres undefined)
5. Cc1cc2nc(C(C)C)cc(N3CCN(c4ccc(O)cc4)CC3)n2n1
6. COc1ccc(S(=O)(=O)NCc2cccnc2N(C)C)cc1F
7. COc1c(C2CCCN2C(=O)c2ccc(O)nc2)c(C)nn1C (centres undefined)
8. Cc1ccccc1CN1CCN(C(C)c2nc(C3CC3)no2)CC1 (centres undefined)

1. -3.9
2. -0.972
3. 8.73
4. -0.447
5. 10.8
6. 5.8
7. 2.63
8. -22.2

---

Test: Toxicity liver stage against HepG2, at 10uM
Type: cell-based
Parameters: test concentration 10 uM, cell line HepG2-A16-CD81EGFP
Conditions: human, HepG2-A16-CD81EGFP cells; read-out: INHIBITION
Property name: cytotoxicity at 10 µM (%)
One number for each entry, in %.

{"Compound": "NCCCC(=O)NCC1(O)CCN(c2ccnc3cccnc23)C1 (configuration not stated)", "cytotoxicity at 10 µM / %": 1.58}
{"Compound": "O=S(=O)(NC1CC1)c1cccc(Br)c1", "cytotoxicity at 10 µM / %": -3.52}
{"Compound": "Cc1nc2cc(-c3nccn3C)nn2c(N2CCCC2)c1C", "cytotoxicity at 10 µM / %": 4.53}

Kindly give each listed record's cytotoxicity at 10 µM.
1. COc1ccc(S(=O)(=O)C(C)C(=O)NCCOc2cccc(C)c2)cc1 (configuration not stated)
2. Cn1nccc1C(=O)N1CCCC1c1ccc(C(=O)N2CCOCC2)s1 (configuration not stated)
3. O=C(c1cccs1)N1CCC(n2nc(-c3ccco3)ccc2=O)CC1

-2.24
-145
-6.62

Kindly give each listed record's cytotoxicity at 10 µM.
1. c1cc(CN2CCC(c3ccc4c(c3)OCO4)CC2)ccn1
2. CCC(CC)CN1CCC(n2cc(C3CCCC3)nn2)CC1
3. CCN(Cc1ccco1)C(C)c1nc(C(C)(C)C)no1 (configuration not stated)
4. OCc1nnc2n1CCN(c1cnccn1)C2
5. Cc1nn(C)c(C)c1NC(=O)CN1CCc2c(nc(C(C)C)n2C)C1

-5.21
3.92
0.623
5.59
-8.02

Requested field: cytotoxicity at 10 µM. Item: Cc1cnccc1-c1cnn(CCNC(=O)c2cccnc2)c1C1CC1
4.34

---

Would you mind telling me the reported cytotoxicity at 10 µM of each entry?
Assay: Toxicity liver stage against HepG2, at 10uM
Assay type: cell-based
Parameters: test concentration 10 uM, cell line HepG2-A16-CD81EGFP
Settings: human, HepG2-A16-CD81EGFP cells; read-out: INHIBITION
Answers are plain numbers, in %.

{"Compound": "CNS(=O)(=O)c1cccc(C(C)NCc2ccsc2)c1 (stereo unspecified)", "Property name": "cytotoxicity at 10 µM", "Experimental value": 2.45}
{"Compound": "Cn1nc(C2CC2)c2c1NC(=O)CC2c1cc(CN2CCCC2)cs1 (stereo unspecified)", "Property name": "cytotoxicity at 10 µM", "Experimental value": -2.2}
{"Compound": "Cc1ncc2c(n1)CN(Cc1nnc(-c3ccccc3)o1)CC2", "Property name": "cytotoxicity at 10 µM", "Experimental value": -9.77}

Kindly give each listed record's cytotoxicity at 10 µM.
1. CNC(=O)CN1CCC2(CC1)C[C@@H](O)[C@H](c1ccccc1)NC2=O
2. Cc1nnc(CN(C)C2CCN(Cc3nc4ccccc4n3C)C2)o1 (stereo unspecified)
3. CCc1nsc(NC2CCCn3nc(CC)nc32)n1 (stereo unspecified)

1: -32.2; 2: -10.1; 3: 16.2

---

Assay: Toxicity liver stage against HepG2, at 10uM
Type: cell-based
Set-up: test concentration 10 uM, cell line HepG2-A16-CD81EGFP
Details: human, HepG2-A16-CD81EGFP cells; read-out: INHIBITION
# note: exactly -10% is not below, so it is not met; use met for cytotoxicity at 10 µM strictly under it

{"Molecule": "CCOC(=O)c1nc(CC(=O)Nc2ccccc2)no1", "Classification": "not met"}
{"Molecule": "Cc1cnn(C2CN(Cc3nnc(-c4ccccc4Cl)o3)C2)c1", "Classification": "not met"}
{"Molecule": "CNC(=O)Cc1ccc(NC(=O)NCC(C)c2ncc(C)s2)cc1 (stereo unspecified)", "Classification": "met"}
{"Molecule": "CN(C)C(=O)[C@H]1C[C@H]2OCC[C@H]2N(CCOc2ccc(Cl)cc2)C1", "Classification": "met"}

Consider Cc1nc(CN2C(=O)COC3(CCN(Cc4nccs4)CC3)C2C)cs1 (stereo unspecified) . Does its cytotoxicity at 10 µM lie strictly below -10%?
met

Note, next up: O=C(Cc1ccsc1)N1CCCC(c2n[nH]c3nccnc23)C1 (stereo unspecified)
not met
